The reported numbers originate from ChEMBL document CHEMBL1123461.

# tested on: Histamine H1 receptor (Cavia porcellus, UniProt P31389)
# Sequence (P31389 whole entry): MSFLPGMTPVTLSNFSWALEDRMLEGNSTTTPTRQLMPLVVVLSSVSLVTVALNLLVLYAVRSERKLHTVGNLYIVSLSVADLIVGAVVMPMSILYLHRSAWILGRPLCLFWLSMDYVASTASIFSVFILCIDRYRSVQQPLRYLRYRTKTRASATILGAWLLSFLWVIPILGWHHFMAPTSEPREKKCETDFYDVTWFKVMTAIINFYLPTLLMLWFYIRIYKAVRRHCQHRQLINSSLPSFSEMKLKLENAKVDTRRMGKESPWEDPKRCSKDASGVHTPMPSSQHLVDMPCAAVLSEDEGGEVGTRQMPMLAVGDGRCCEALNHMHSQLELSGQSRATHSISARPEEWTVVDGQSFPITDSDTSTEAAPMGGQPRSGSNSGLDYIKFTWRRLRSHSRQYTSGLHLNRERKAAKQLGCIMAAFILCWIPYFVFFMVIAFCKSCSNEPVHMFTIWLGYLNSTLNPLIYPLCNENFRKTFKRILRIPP
# experimental details: H1-antihistamine activity in guinea pig ileum
# Assay type: functional, tissue-based
# test conditions: read-out: pA2 (converted)
recorded endpoint: Kb (nM)

(I) Cc1c(OCCCN2CCN(Cc3ccccc3Cl)CC2)ccc2c(O)c3nnnc-3oc12
(II) Oc1c2nnnc-2oc2cc(OCCCN3CCN(Cc4ccc(Cl)cc4)CC3)ccc12
(III) Cc1c(OCCCN2CCN(Cc3ccc(Cl)cc3)CC2)ccc2c(O)c3nnnc-3oc12
(IV) Cc1c(OCCCN2CCN(Cc3ccccn3)CC2)ccc2c(O)c3nnnc-3oc12
Hey, quick one: sort these by Kb, low to high? As an answer, provide the labels arranged in the order called for.
II, III, I, IV
